Measured values drawn from paper PMC8264055 for this set.

test: Colistin content in luminal intestinal content (LIC) by UHPLC-MS/MS, non-compartmental PK analysis; type: in vivo, broiler chicken (Gallus gallus domesticus); conditions: Ross 308 broiler, luminal intestinal content (LIC), po, 75000 IU/kg/day; 75,000 IU/kg/day via drinking water for 72 h; 72 h; mean of n = 8 birds; read-out: mean colistin content in LIC at cessation of dosing
Counter-ions that a name gives are not always drawn. Positions of bridges follow the written chain, without caps; N, C: chain ends. Non-standard residues stand in square brackets, D forms with d. Residues, ends and D or L forms follow the SMILES beside them. *: point of attachment. X1 = CC[C@H](C)CCCCC(=O)*; Dab = NCC[C@H](N)C(=O)O
Metric: tissue level at time at 72 h (ng/g)
Give a bare numeral; the unit ng/g is implied.

Task: Provide tissue level at time at 72 h value for the following molecule: CC[C@H](C)CCCCC(=O)N[C@@H](CCN)C(=O)N[C@H](C(=O)N[C@@H](CCN)C(=O)N[C@H]1CCNC(=O)[C@H]([C@@H](C)O)NC(=O)[C@H](CCN)NC(=O)[C@H](CCN)NC(=O)[C@H](CC(C)C)NC(=O)[C@@H](CC(C)C)NC(=O)[C@H](CCN)NC1=O)[C@@H](C)O [colistin, colistin sulfate] (X1-[Dab]T[Dab][Dab][Dab][dL]L[Dab][Dab]T; lactam 4-C)
Output: 4510
